target: Glucose-dependent insulinotropic receptor (Mus musculus); test: Agonist activity at mouse GPR119 expressed in HEK293 cells assessed as stimulation of cMAP level by cell-based cAMP assay
assay metric: EC50 (nM)
Number in nM, nothing else.

Here are 3 molecules together with their reported answers.
- molecule: "Cc1ncccc1Oc1ncnc(O[C@H]2C[C@@H]3CC(F)(F)[C@@H](C2)N3S(=O)(=O)C2CC2)c1C"
  EC50 [nM]: 220
- molecule: "Cc1ncccc1Oc1ncnc(O[C@H]2CC3CC[C@@H](C2)N3S(=O)(=O)c2ccc(F)cc2)c1C (single isomer, unassigned)"
  EC50 [nM]: 350
- molecule: "Cc1ncccc1Oc1ncnc(O[C@H]2C[C@H]3CC[C@@H](C2)N3C(=O)OC(C)C2CC2)c1C (some centres undefined)"
  EC50 [nM]: 59

Kindly review the next molecule as well.
Documented EC50 of Cc1c(Nc2ccc(C#N)cc2Cl)ncnc1O[C@H]1CC2CC[C@@H](C1)N2S(=O)(=O)C1CC1 (single isomer, unassigned) : 140

---

Reported concentration at 1 h is given for each of the following molecules.
experiment: Plasma concentration in mouse at 3 mg/kg, po after 1 hr; type: ADME, organism-based; set-up: dose 3 mg/kg, route oral
Number in nM, nothing else.

- molecule: "Cc1c(Oc2ccccc2C#N)ncnc1O[C@H]1CC2CC[C@@H](C1)N2S(=O)(=O)C1CC1 (single isomer, unassigned)"
  value units: "nM"
  measured number: 290

Documented concentration at 1 h of Cc1ncccc1Oc1ncnc(O[C@H]2CC3CC[C@@H](C2)N3C(=O)OC2(C)CC2)c1C (single isomer, unassigned) : 130

Documented concentration at 1 h of Cc1ncccc1Oc1ncnc(O[C@H]2CC3CC[C@@H](C2)N3C(=O)OC(C)C)c1C (single isomer, unassigned) : 193

Documented concentration at 1 h of Cc1c(Nc2ccc(C#N)cc2Cl)ncnc1O[C@H]1CC2CC[C@@H](C1)N2S(=O)(=O)C1CC1 (single isomer, unassigned) : 275

Documented concentration at 1 h of Cc1ncccc1Oc1ncnc(O[C@H]2CC3CC[C@@H](C2)N3S(=O)(=O)C2CC2)c1C (single isomer, unassigned) : 2330

Documented concentration at 1 h of "CC(C)OC(=O)N1CCC(Oc2cc(Oc3ccc(S(C)(=O)=O)cc3F)ncn2)CC1" : 480

---

tested on: Rhesus monkey; assay: AUC (0 to 24 hrs) in monkey at 3 mg/kg, po; assay type: ADME, organism-based, Macaca mulatta, Plasma; set-up: time < 24 hr, dose 3 mg/kg, route oral; settings: in vivo
assay metric: AUC (µM·h)
Number in µM·h, nothing else.

Tested on Rhesus monkey, the item Cc1c(Nc2ccc(C#N)cc2Cl)ncnc1O[C@H]1CC2CC[C@@H](C1)N2S(=O)(=O)C1CC1 (single isomer, unassigned) showed AUC equal to 16.5

---

Molecular target: Glucose-dependent insulinotropic receptor (Mus musculus)
Sequence (whole entry): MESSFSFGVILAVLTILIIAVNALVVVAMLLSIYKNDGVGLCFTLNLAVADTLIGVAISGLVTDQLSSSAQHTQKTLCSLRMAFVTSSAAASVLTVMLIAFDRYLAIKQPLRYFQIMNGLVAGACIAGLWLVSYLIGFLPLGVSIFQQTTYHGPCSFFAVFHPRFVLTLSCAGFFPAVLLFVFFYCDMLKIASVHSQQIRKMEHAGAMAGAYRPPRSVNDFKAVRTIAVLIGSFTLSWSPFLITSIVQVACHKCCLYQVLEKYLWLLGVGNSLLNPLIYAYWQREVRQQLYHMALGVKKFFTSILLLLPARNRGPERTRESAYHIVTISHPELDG
Test: Agonist activity at mouse GPR119 expressed in HEK293 cells assessed as maximal stimulation of cMAP level by cell-based cAMP assay relative to 21
Assay type: functional
Decision: Activity >= 70% yields 1, all other cases yield -1.

Worked examples follow.
- molecule: "Cc1ncccc1Oc1ncnc(O[C@H]2CC3CC[C@@H](C2)N3S(=O)(=O)CC(F)(F)F)c1C (single isomer, unassigned)"
  target desc: "Glucose-dependent insulinotropic receptor (Mus musculus)"
  class label: -1
- molecule: "Cc1ncccc1Oc1ncnc(O[C@H]2CC3C=C[C@@H](C2)N3C(=O)OC(C)C)c1C (single isomer, unassigned)"
  target desc: "Glucose-dependent insulinotropic receptor (Mus musculus)"
  class label: -1
- molecule: "Cc1c(Nc2ccccc2C#N)ncnc1O[C@H]1CC2CC[C@@H](C1)N2S(=O)(=O)C1CC1 (single isomer, unassigned)"
  target desc: "Glucose-dependent insulinotropic receptor (Mus musculus)"
  class label: 1
- molecule: "Cc1ncccc1Oc1ncnc(O[C@H]2CC3CC[C@@H](C2)N3C(=O)OC(C)C)c1C (single isomer, unassigned)"
  target desc: "Glucose-dependent insulinotropic receptor (Mus musculus)"
  class label: -1
- molecule: "Cc1c(Nc2ccc(S(C)(=O)=O)cc2F)ncnc1O[C@H]1CC2CC[C@@H](C1)N2S(=O)(=O)C1CC1 (single isomer, unassigned)"
  target desc: "Glucose-dependent insulinotropic receptor (Mus musculus)"
  class label: 1
- molecule: "Cc1ncccc1Oc1ncnc(O[C@H]2C[C@@H]3CC(F)(F)[C@@H](C2)N3S(=O)(=O)C2CC2)c1C"
  target desc: "Glucose-dependent insulinotropic receptor (Mus musculus)"
  class label: -1

Moving on to the next molecule.
Is Activity for Cc1c(Oc2ccccc2C#N)ncnc1O[C@H]1CC2CC[C@@H](C1)N2S(=O)(=O)C1CC1 (single isomer, unassigned) at or above 70%?
1

Ref: ChEMBL document CHEMBL1777763
